Test system: SF-295 CNS
Test: NCI-60 one-dose screen, 48 h (100 = growth as untreated, 0 = no growth, -100 = all killed)
Conditions: 10 µM unless noted
Compounds without any hit were thinned out: in the full panel of roughly 83,000, 20% have a hit.
Catalogue of compounds with associated growth
reported endpoint: growth (%)

[[record]]
compound = "COc1ccc(C(=O)/C=C/c2c(C(F)(F)F)nc3sccn23)cc1OC"
reported_endpoint = "growth"
output_unit = "%"
experimental_result = -9.31

[[record]]
compound = "COc1cccc(-c2nn(-c3ccccc3)cc2-c2ccnc(NCCNC(=O)Nc3ccc(Cl)c(Cl)c3)c2)c1"
reported_endpoint = "growth"
output_unit = "%"
experimental_result = 2.94

[[record]]
compound = "COC(=O)[C@]12CC[C@@H](C)[C@H](C)[C@@H]1C1=CC[C@@H]3[C@@]4(C)C(C=O)=C[C@@](C)(COC(C)=O)C4=CC[C@@]3(C)[C@]1(C)CC2"
reported_endpoint = "growth"
output_unit = "%"
experimental_result = 0.263

[[record]]
compound = "O=C(CCCCCCSc1nc(-c2ccccc2)cc(-c2ccc(Cl)cc2)n1)NO"
reported_endpoint = "growth"
output_unit = "%"
experimental_result = 27.1

[[record]]
compound = "COc1cc(N=Nc2cc(Cc3ccc(N(C)C)cc3)c(N)cc2N(C)C)c2ncccc2c1"
reported_endpoint = "growth"
output_unit = "%"
experimental_result = 11.8

[[record]]
compound = "O=C(CSc1nnc(-c2ccc(NC(=O)c3cccnc3)cc2)o1)N[C@@H](Cc1ccc(O)cc1)C(=O)O"
reported_endpoint = "growth"
output_unit = "%"
experimental_result = 108

[[record]]
compound = "COc1ccc(-c2cc(-c3ccc(Nc4nc(Nc5ccc(Cl)cc5)nc(Nc5ccc(Cl)cc5)n4)cc3)nc(N)c2C#N)cc1"
reported_endpoint = "growth"
output_unit = "%"
experimental_result = 415

[[record]]
compound = "CC(=O)OC[C@H]1OC(Sc2sc(C(=O)c3ccc(Br)cc3)c(N)c2-c2nc3ccccc3s2)[C@H](OC(C)=O)[C@@H](OC(C)=O)[C@@H]1OC(C)=O (some centres not stated)"
reported_endpoint = "growth"
output_unit = "%"
experimental_result = 69.6

[[record]]
compound = "CCC1(C2CCCC2)NC(=O)NC1=O (configuration not stated)"
reported_endpoint = "growth"
output_unit = "%"
experimental_result = 111

[[record]]
compound = "COc1ccc(C(=O)COc2ccc(/C=C3\\Oc4ccccc4C3=O)cc2)cc1"
reported_endpoint = "growth"
output_unit = "%"
experimental_result = 172

[[record]]
compound = "CCN(CC)CCN1C(=O)c2c(c(C)c3c(oc4cc(O)ccc43)c2C)C1=O"
reported_endpoint = "growth"
output_unit = "%"
experimental_result = 103

[[record]]
compound = "Cc1ccc(S(=O)(=O)n2cc(CNc3ccc(N4CCOCC4=O)cc3)c3ccccc32)cc1"
reported_endpoint = "growth"
output_unit = "%"
experimental_result = 88.7

[[record]]
compound = "CC(C)(C)CC(C)(C)Nc1c(-c2ccncc2)nc2cnccn12"
reported_endpoint = "growth"
output_unit = "%"
experimental_result = 101

[[record]]
compound = "CCCCCCCCCOc1c(OC)cc(C2CC(=O)Nc3c2c(C)nn3-c2nc3ccccc3[nH]2)cc1OC (configuration not stated)"
reported_endpoint = "growth"
output_unit = "%"
experimental_result = -59.1

[[record]]
compound = "CCOC(=O)c1c2ncccc2n2c(=O)n(-c3ccccc3C)nnc12"
reported_endpoint = "growth"
output_unit = "%"
experimental_result = 105

[[record]]
compound = "COC(=O)[C@]12CC[C@@H](C)[C@H](C)[C@@H]1C1=CC[C@@H]3[C@@]4(C)C(C=O)=C[C@@](C)(COS(C)(=O)=O)C4[C@H](O)C[C@@]3(C)[C@]1(C)CC2 (some centres not stated)"
reported_endpoint = "growth"
output_unit = "%"
experimental_result = -87.3

[[record]]
compound = "CN(C)CCC=C1c2ccccc2C(C)(C)c2ccccc21"
reported_endpoint = "growth"
output_unit = "%"
experimental_result = 67.2

[[record]]
compound = "COc1ccc2[nH]c(O)c(/C=c3/cc4c(c(-c5ccc(F)c(OC)c5)n3)=Nc3ccccc3-4)c2c1"
reported_endpoint = "growth"
output_unit = "%"
experimental_result = 104

[[record]]
compound = "O=C(Cc1ccc(F)c(F)c1)Nc1cc(C2(C(F)(F)F)CC2)nn1Cc1ccccc1"
reported_endpoint = "growth"
output_unit = "%"
experimental_result = -1.31

[[record]]
compound = "CCCCCCCCCCCCCCCCCCOc1ccccc1CC(=O)OCCC[N+](C)(C)C"
reported_endpoint = "growth"
output_unit = "%"
experimental_result = 75.4

[[record]]
compound = "COc1ccc(-c2cc(-c3cc(OC)c(OC)c(OC)c3)c(C#N)c(N3CCOCC3)n2)cc1O"
reported_endpoint = "growth"
output_unit = "%"
experimental_result = 41.6

[[record]]
compound = "COCN1CCC2N(COC)CCC3N(COC)CCC1N23 (configuration not stated)"
reported_endpoint = "growth"
output_unit = "%"
experimental_result = 113

[[record]]
compound = "Cn1c(=O)c2[nH]c(NN)nc2n(C)c1=O"
reported_endpoint = "growth"
output_unit = "%"
experimental_result = 108

[[record]]
compound = "COc1cc(C2CC(=O)Nc3c2c(C)nn3-c2nc3ccccc3[nH]2)cc2c1OCC(=O)N2 (configuration not stated)"
reported_endpoint = "growth"
output_unit = "%"
experimental_result = 19.1

[[record]]
compound = "C=C1C(=O)O[C@H]2[C@H]1CC/C(COC(=O)C(=O)c1c[nH]c3ccc(OC)cc13)=C\\CC[C@@]1(C)O[C@@H]21"
reported_endpoint = "growth"
output_unit = "%"
experimental_result = 33.1

[[record]]
compound = "C[n+]1cccc(CC(=O)NO)c1"
reported_endpoint = "growth"
output_unit = "%"
experimental_result = 113

[[record]]
compound = "CC(C)C(NC(=O)C1(NC(=O)OCc2ccccc2)CCCC1)C(=O)O (configuration not stated)"
reported_endpoint = "growth"
output_unit = "%"
experimental_result = 112

[[record]]
compound = "Cc1ccc(NCCN(C)C)c2c(=O)c3ccccc3sc12"
reported_endpoint = "growth"
output_unit = "%"
experimental_result = 29.4

[[record]]
compound = "O=S(=O)(Nc1cccc(Cl)c1)c1ccc(-c2cnc(C3CC3)o2)cc1"
reported_endpoint = "growth"
output_unit = "%"
experimental_result = 15.5

[[record]]
compound = "CNC(=O)CCN1CCN(CC/C=C2\\c3ccccc3Sc3ccc(Cl)cc32)CC1"
reported_endpoint = "growth"
output_unit = "%"
experimental_result = 98.5

[[record]]
compound = "CC1O[C@@H](OC2[C@H](OC(=O)/C=C/c3ccc(O)c(O)c3)C(COC3O[C@H](C)C(O)C(O)[C@@H]3O)O[C@@H](OCCc3ccc(O)c(O)c3)[C@H]2O)[C@@H](O)C(O)[C@H]1O (some centres not stated)"
reported_endpoint = "growth"
output_unit = "%"
experimental_result = 103

[[record]]
compound = "COc1cccc(/C=C/C(=O)c2c(C)nc3ccccc3c2/C=C/c2ccc(C)cc2)c1OC"
reported_endpoint = "growth"
output_unit = "%"
experimental_result = 65.7

[[record]]
compound = "COc1cc(/C=N/n2c(CN3CCOCC3)nc3ccccc3c2=O)cc(OC)c1OC"
reported_endpoint = "growth"
output_unit = "%"
experimental_result = 98.6

[[record]]
compound = "CCOC(=O)c1c(/C=C/C(=O)O)nc2ccccc2c1/C=C/c1ccccc1"
reported_endpoint = "growth"
output_unit = "%"
experimental_result = 73.6

[[record]]
compound = "C=CCn1c(C)nc2cc(Nc3nc(N4CCCC4)nc4ccccc34)ccc21"
reported_endpoint = "growth"
output_unit = "%"
experimental_result = 83.7

[[record]]
compound = "CC/C=C\\C[C@H](O)C/C=C1/C(=O)C=C[C@@H]1C/C=C\\CCCCO"
reported_endpoint = "growth"
output_unit = "%"
experimental_result = 10.6

[[record]]
compound = "S=C(Cc1ccc2c(c1)CCCC2)N1CCOCC1"
reported_endpoint = "growth"
output_unit = "%"
experimental_result = 104


###

Tested on: NCI-H460 lung
Assay: NCI-60 one-dose screen, 48 h (100 = growth as untreated, 0 = no growth, -100 = all killed)
Conditions: 10 µM unless noted
Compounds without any hit were thinned out: in the full panel of roughly 83,000, 20% have a hit. Active and inactive are the calls of the source. How the source made its calls: active means growth percent below 10; inactive means the rest.
Recorded growth values for a group of compounds are listed next.
reported endpoint: growth

[[record]]
compound = "S=C(Cc1ccc2c(c1)CCCC2)N1CCOCC1"
experimental_result = "107% (inactive)"

[[record]]
compound = "CCCCCc1nc2c(c3c1CCCC3)CCCC2"
experimental_result = "83% (inactive)"

[[record]]
compound = "CC1(C)CC[C@]2(C(=O)N3CCOCC3)CC[C@]3(C)C(=CC[C@@H]4[C@@]5(C)CC[C@H](OC(=O)c6cccnc6)C(C)(C)[C@@H]5CC[C@]43C)[C@@H]2C1"
experimental_result = "18.3% (inactive)"

[[record]]
compound = "Cc1ccc(-c2cc(-c3ccccc3C)[nH]c(=O)c2C#N)s1"
experimental_result = "98.7% (inactive)"

[[record]]
compound = "COc1cc(-c2nc(N3CCN(C)CC3)c3ccccc3n2)cc(OC)c1OC"
experimental_result = "84.5% (inactive)"

[[record]]
compound = "COc1ccc(/C=c2\\nc3n(-c4ccccc4)c4nc5c6c(sc5c(=N)n4n-3c2=O)CCCC6)cc1"
experimental_result = "98.1% (inactive)"

[[record]]
compound = "O=[N+]([O-])c1ccc(C2CC(c3ccccc3)=Nc3ccccc3S2)cc1 (stereo not given)"
experimental_result = "101% (inactive)"

[[record]]
compound = "COc1nc2c(c(=O)n1C)CN(c1ccccc1)C(=O)CN2C"
experimental_result = "59.4% [100 µM] (inactive)"

[[record]]
compound = "O=C(O)C1CCC(=O)N1C(=O)OCc1ccccc1 (stereo not given)"
experimental_result = "106% (inactive)"

[[record]]
compound = "CS(=O)(=O)c1ccc(Nc2nc(N[C@H]3CCCC[C@H]3N)nc3cc[nH]c(=O)c23)cc1"
experimental_result = "12.4% (inactive)"

